Catalogue of Bliss excess values
Test system: GP5d (Colorectal Carcinoma);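 also: after 72 h of two-drug dosing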
Test method notes: Bliss excess, mean over the matrix (fraction); higher = more synergy
// return just the number, without any unit appended

COc1nnc2ccc(N3CCC(c4ccc(OCCN5CCN(C)C(=O)[C@H]5C)cc4)CC3)nn12 [AZD5153] + CCN(CCO)CCCOc1ccc2c(Nc3cc(CC(=O)Nc4cccc(F)c4)[nH]n3)ncnc2c1 [AZD2811] (first compound max 1 µM, 7x7, partner max 1 µM) | -0.082
CC1(C)CCC(CN2CCN(c3ccc(C(=O)NS(=O)(=O)c4ccc(NCC5CCOCC5)c([N+](=O)[O-])c4)c(Oc4cnc5[nH]ccc5c4)c3)CC2)=C(c2ccc(Cl)cc2)C1 [Venetoclax] + C[C@@H]1COCCN1C2=NC(=NC(=C2)C3(CC3)[S@](=N)(=O)C)C4=C5C=CNC5=NC=C4 [AZD6738] (first compound max 1 µM, 7x7, partner max 10 µM) | -0.0657
CCN(CCO)CCCOc1ccc2c(Nc3cc(CC(=O)Nc4cccc(F)c4)[nH]n3)ncnc2c1 [AZD2811] + O=C(c1cc(Cc2n[nH]c(=O)c3ccccc23)ccc1F)N1CCN(C(=O)C2CC2)CC1 [Olaparib] (first compound max 1 µM, 7x7, partner max 10 µM) | -0.0785

With those in mind, consider the next compound.
Under GP5d (Colorectal Carcinoma): Bliss excess value of Cn1cnc2c(F)c(Nc3ccc(Br)cc3Cl)c(C(=O)NOCCO)cc21 [Selumetinib] + CCN(CCO)CCCOc1ccc2c(Nc3cc(CC(=O)Nc4cccc(F)c4)[nH]n3)ncnc2c1 [AZD2811] (first compound max 10 µM, 7x7, partner max 1 µM) ?
-0.0153
